Molecular target: Mannose-6-phosphate isomerase (Homo sapiens)
Assay: inhibitors of human PMI, primary screen, biochemical, fluorescence intensity, coupled assay (AID 1209);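 also: plate controls were DMSO vehicle for no effect and wells lacking substrate for full effect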
Conditions: purified PMI enzyme, at 20 µM, hits give high values
Hit rate of the full screen: of about 190,000 compounds, about 810 (0.43%) were called active. What follows is part of a selection rich in actives, with near analogues and random picks from the rest.
Below, each entry is listed with its recorded inhibition.

{"columns": ["molecule", "unit_name", "inhibition"],
 "data": [
  ["O=C(CCNC(=O)c1ccco1)Nc1ccc(Cl)cc1", "%", 4.4],
  ["C#CCNc1cc(-c2ccccc2)nc2ncnn12", "%", -2.5],
  ["Cc1ccc(C)n1-c1ncn[nH]1", "%", 5.2],
  ["Cn1c(=O)c(=O)n(C)c2cc(S(=O)(=O)N3CCC(Cc4ccccc4)CC3)ccc21", "%", 0.3],
  ["CCOC(=O)N1CCN(S(=O)(=O)c2cc(C)c(C)cc2C)CC1", "%", -3.8],
  ["Cn1c(=O)n(Cc2ccc(F)cc2)c(=O)c2c1nc1n2CCCN1C1CCCCC1", "%", 6],
  ["CC(Nc1ccc2c(c1)OCCO2)C(=O)N1CCc2ccccc21 (stereo unspecified)", "%", 6.4],
  ["S=C(c1ccc(-c2ccc(Cl)cc2)o1)N1CCCCC1", "%", 9.1],
  ["CCc1ccccc1N1CSC2=C(C#N)C(c3cc(OC)c(OC)cc3OC)CC(=O)N2C1 (stereo unspecified)", "%", 46],
  ["COc1ccc2ccccc2c1C1CC(=O)N2CN(C)CSC2=C1C#N (stereo unspecified)", "%", 54.3],
  ["CN(C)C(=O)COc1ccc(Br)cc1", "%", 8.1],
  ["CN1CSC2=C(C#N)C(c3cccc(OCc4ccccc4)c3)CC(=O)N2C1 (stereo unspecified)", "%", 29.7],
  ["CCOc1ccccc1N1CSC2=C(C#N)C(c3c(OC)ccc4ccccc34)CC(=O)N2C1 (stereo unspecified)", "%", 64.9],
  ["Cc1ccc(-n2c(C)n[nH]c2=S)cc1", "%", 11.4],
  ["COc1ccc(/C=C(\\C#N)C(=O)OCC(=O)NC(=O)NCCC(C)C)cc1", "%", -4.9],
  ["COC(=O)[C@@H](N)Cc1ccc(O)cc1", "%", 2.6],
  ["S=C(N/N=C/c1ccccc1Cl)Nc1ccccc1", "%", 12.3],
  ["O=C(Nn1cnnc1)C1CCCN1S(=O)(=O)c1ccc(F)cc1 (stereo unspecified)", "%", -3.3],
  ["Cc1ccc2[nH]c(=O)c(C(c3nnnn3C3CCCC3)N3CCCc4ccccc43)cc2c1 (stereo unspecified)", "%", 57.3],
  ["Cc1ccccc1C(=O)c1c[nH]c(C(=O)N2CCN(c3ccccc3F)CC2)c1", "%", 7.5],
  ["CCCN1C2CCCC1CC(NC(=S)Nc1cc(C)cc(C)c1)C2 (stereo unspecified)", "%", 7.1],
  ["C[C@@](Cc1ccc(O)c(O)c1)(NN)C(=O)O", "%", 12.9],
  ["COc1ccc(OCC(=O)O/N=C(\\N)Cc2cccs2)cc1", "%", 3.7],
  ["Cc1cc(N=Cc2c(O)ccc3ccccc23)no1", "%", 43.9],
  ["CCOc1cc(C2CC(=O)NC(SCC)=C2C#N)ccc1O (stereo unspecified)", "%", 9.3],
  ["C[C@](N)(Cc1ccc(O)c(O)c1)C(=O)O", "%", 57.7],
  ["CCN1CCN(C(=O)C(C)Nc2cc(Cl)c(OC)cc2OC)CC1 (stereo unspecified)", "%", 26.6],
  ["COc1ccccc1N1CSC2=C(C#N)C(c3ccc(SC)cc3)CC(=O)N2C1 (stereo unspecified)", "%", -29.2],
  ["O=c1[nH]c2cc3c(cc2cc1C(c1nnnn1C1CCCC1)N1CCCc2ccccc21)OCCO3 (stereo unspecified)", "%", 12.8],
  ["COCCn1c(=NC(=O)C2COc3ccccc3O2)sc2cc(S(N)(=O)=O)ccc21 (stereo unspecified)", "%", 12.8],
  ["COC(=O)c1cccc(NC(=O)CCc2cc(OC)c(OC)c(OC)c2)c1", "%", -5.4],
  ["CC1(C)CC(=O)c2sc(NC(=O)c3ccc4ncsc4c3)nc2C1", "%", -7.8],
  ["CC1=C(C(=O)Nc2ccccn2)C(c2ccccc2Cl)NC(=S)N1 (stereo unspecified)", "%", -6.6],
  ["O=C(c1cnn2c(C(F)F)cc(C3CC3)nc12)N1CCCC1", "%", -5.5],
  ["COc1cc(/C=C(\\NC(=O)c2ccccc2)C(=O)Nc2cccc(O)c2)c([N+](=O)[O-])cc1OC", "%", 9.6],
  ["CCCCN(C(=O)c1ccc(NC(=O)C(C)C)cc1)c1ccccc1", "%", 8.2],
  ["CCOC(=O)N1CCC(Nc2c(N3CCN(c4cccc(C(F)(F)F)c4)CC3)c(=O)c2=O)CC1", "%", -9.4],
  ["COC(=O)C(N)Cc1ccc(O)cc1 (stereo unspecified)", "%", -4.5],
  ["O=Cc1cn(CCC(=O)O)nc1-c1cccc(Br)c1", "%", -4.6],
  ["Cc1csc(NC(=O)C2CCCN(S(=O)(=O)c3ccc4c(c3)oc(=O)n4C)C2)n1 (stereo unspecified)", "%", 13.4],
  ["O=C(O)CCn1cc(/C=C2\\SC(=S)NC2=O)c(-c2ccccc2)n1", "%", -4.7],
  ["CCN(C(=O)c1cc2cccc(OC)c2oc1=O)C1CCCCC1", "%", -7.8],
  ["CC[N+](C)(CC)CC(O)COCC1COc2ccccc2O1 (stereo unspecified)", "%", 19.8],
  ["CC(=O)N1CCN(C(=S)c2ccc(-c3ccc(Cl)cc3)o2)CC1", "%", 63.9],
  ["COC(=O)C(N)Cc1ccc(O)c(O)c1 (stereo unspecified)", "%", 56.9],
  ["COc1ccc(C(=O)COC(=O)CCN=C2NS(=O)(=O)c3ccccc32)cc1OC", "%", -5.9]
]}

src = PubChem BioAssay AID1209
